Just for reference, paper PMC9482650 is where these values come from.

experimental-target: T1, DVL3, Q92997
T1 sequence (Q92997 244-331, limits assumed, looked up): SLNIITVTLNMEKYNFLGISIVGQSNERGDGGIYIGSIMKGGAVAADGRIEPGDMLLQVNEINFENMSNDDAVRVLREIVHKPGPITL
procedure-summary: holdup assay
Set-up: key: below the threshold = too weak to quantify, mostly under pKd 3.1 to 4
condition: plain residues with an end cap or a label only (N-terminal biotin on a linker: ado-ado)

binder: MQHQRTHTRV [ZSCAN30, Q86W11]
pKd: below the threshold
--
binder: QSYPSKHDYV [CLDN18, P56856]
pKd: 3.7
--
binder: EDGESWEYQI [TRPV6, Q9H1D0]
pKd: below the threshold
--
binder: IDESKKEWLI [CNTNAP2, Q9UHC6]
pKd: 3.85
--
binder: AQRARSPSDV [GPR12, P47775]
pKd: below the threshold
--
binder: PSVGSKKTVL [REELD1, A0A1B0GV85]
pKd: below the threshold
--
binder: APIAGFSSFV [SDK2, Q58EX2]
pKd: 3.88
--
binder: RQKEVRESKC [SCN8A, Q9UQD0]
pKd: below the threshold
--
binder: SPDRDRESIV [SCN5A, Q14524]
pKd: below the threshold
--
binder: KSRVAFFEEL [NF2, P35240]
pKd: 3.49
--
binder: NIAESLESLV [PTPRZ1, P23471]
pKd: below the threshold
--
binder: SLNANEVEWF [RNF130, Q86XS8]
pKd: 4.48
--
binder: LAHVKHKEQI [AQP3, Q92482]
pKd: below the threshold
--
binder: GTGYDRKDYV [CLDN3, O15551]
pKd: 3.72
--
binder: EDLEDEWEVI [TECPR2, O15040]
pKd: below the threshold
--
binder: PSHPRLQTHV [KIRREL2, Q6UWL6]
pKd: below the threshold
